- System: BDF1 mice, P388 leukemia ip, median survival T/C
- Measurement description: NCI In Vivo Anticancer Drug Screen. Data for tumor model P388 Leukemia (intraperitoneal) in B6D2F1 (BDF1) mice
- Condition label: endpoint: median survival time; dose: 400.0 mg/kg/injection; schedule: Q01DX009 (ip); vehicle: saline with Tween-80
Inconclusive results and toxic doses are left out. The calls were made as follows: active = survival T/C of 150% or more; inactive = T/C below 125% in these data.
Labels: active, inactive

{"Compound": "C[C@]12C=CC(=O)C=C1CC[C@@H]1[C@@H]2[C@@H](O)C[C@@]2(C)[C@H]1CC[C@]2(O)C(=O)COC(=O)CCC(=O)O", "Tested system": "BDF1 mice, P388 leukemia ip, median survival T/C", "Category label": "inactive"}
{"Compound": "C[C@]12CC[C@H]3[C@@H](CCC4=CC(=O)CC[C@@]43C)[C@@H]1CC[C@@H]2OC(=O)Cc1ccc(N(CCCl)CCCl)cc1", "Tested system": "BDF1 mice, P388 leukemia ip, median survival T/C", "Category label": "active"}
{"Compound": "Nc1nc(N)c(N=O)c(Nc2ccc(Br)cc2)n1", "Tested system": "BDF1 mice, P388 leukemia ip, median survival T/C", "Category label": "inactive"}
{"Compound": "Nc1n[nH]c(N)n1.[Ni]", "Tested system": "BDF1 mice, P388 leukemia ip, median survival T/C", "Category label": "inactive"}
{"Compound": "O=C(NCc1cnccn1)c1ccc([N+](=O)[O-])cc1", "Tested system": "BDF1 mice, P388 leukemia ip, median survival T/C", "Category label": "inactive"}
{"Compound": "Oc1c(CN2CCOCC2)cc(CN2CCOCC2)cc1CN1CCOCC1", "Tested system": "BDF1 mice, P388 leukemia ip, median survival T/C", "Category label": "inactive"}
{"Compound": "CCC(=O)Oc1ccc2c(c1)CC[C@@H]1[C@@H]2CC[C@]2(C)C[C@H](OC(=O)CC)C[C@@H]12", "Tested system": "BDF1 mice, P388 leukemia ip, median survival T/C", "Category label": "inactive"}
{"Compound": "COc1ccc(/C=C/C(=O)c2ccc3c(c2)OCO3)cc1OC", "Tested system": "BDF1 mice, P388 leukemia ip, median survival T/C", "Category label": "active"}
{"Compound": "O=C(c1ccc(Cl)cc1)C1Cc2ccccc2C1=O (stereo not given)", "Tested system": "BDF1 mice, P388 leukemia ip, median survival T/C", "Category label": "inactive"}
{"Compound": "CCOc1ccc(/C=N/Nc2ccc([N+](=O)[O-])cc2)cc1OC", "Tested system": "BDF1 mice, P388 leukemia ip, median survival T/C", "Category label": "inactive"}

###

- System: BDF1 mice, P388 leukemia ip, median survival T/C
- Measurement description: NCI In Vivo Anticancer Drug Screen. Data for tumor model P388 Leukemia (intraperitoneal) in B6D2F1 (BDF1) mice
- Condition label: endpoint: median survival time; dose: 1.0 mg/kg/injection; schedule: Q01DX009 (ip); vehicle: Klucel (hydroxypropylcellulose) (HPC)
Toxic doses and inconclusive results are not listed. Rule for the calls: active = survival T/C of 150% or more; inactive = T/C below 125% in these data.
Possible outcomes: active, inactive

{"Compound": "COC1=C(N2CC2)C(=O)C(OC)=C(N2CC2)C1=O", "Category label": "active"}
{"Compound": "NC(Cc1ccc(N(CCCl)CCCl)cc1)C(=O)O (centres undefined)", "Category label": "active"}
{"Compound": "CCc1oc(=O)c(Cc2c(OC(C)=O)cc(OC(C)=O)c3c2OC(c2ccccc2)CC3=O)c(OC(C)=O)c1C (centres undefined)", "Category label": "inactive"}
{"Compound": "C=C1C(=O)OC2C1C(OC(=O)/C(C)=C/CO)C/C(C)=C/CCC1(CO)OC21 (centres undefined)", "Category label": "inactive"}

meta.source: PubChem BioAssay AID328
